- ASSAY TARGET: PDL1, Q9NZQ7
- Sequence (Q9NZQ7 whole entry): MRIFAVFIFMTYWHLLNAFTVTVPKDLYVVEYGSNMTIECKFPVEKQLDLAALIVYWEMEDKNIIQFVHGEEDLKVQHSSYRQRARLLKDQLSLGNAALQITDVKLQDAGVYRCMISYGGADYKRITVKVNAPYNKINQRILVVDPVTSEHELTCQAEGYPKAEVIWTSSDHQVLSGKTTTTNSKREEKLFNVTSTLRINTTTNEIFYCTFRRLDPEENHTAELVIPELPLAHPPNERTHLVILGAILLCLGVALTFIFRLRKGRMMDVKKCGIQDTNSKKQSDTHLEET
Outcome codes: T (active), F (inactive)

>>> cat("d8r1_design_ppi_1265_dldesign_0_cycle1_af2pred (protein) SENEEAAKALTRAAEAAARYLAEKYGELAKEAAKLIAKAAEADAETAVKYLEEAVKLLDEAGKKTGATKETDALKAMAEKAAELKKA")
"T"
>>> cat("d8r1_design_ppi_996_dldesign_0_cycle1_af2pred (protein) SASDIKAAQKAAAAVLRVAAERFPEVAAVAEPAAETAYNGDAETAIKAILEAAEAIRAAAARLPGGAELRAYADALENIAALLKRLAA")
"F"
>>> cat("d8r1_design_ppi_1323_dldesign_0_cycle1_af2pred (protein) MKASIKHLIEQAKKYAKEAKETGSDALARAAASAAAAAAVLAKEAGDKELAKEAEKVAKEIAEVAPPSIAKYAKEAAKLAAE")
"F"
>>> cat("d8r1_design_ppi_509_dldesign_0_cycle1_af2pred (protein) KDEHFDKMVEYLKKAQEAYNKAVAAAKAGDADAAKAALAKAQEYYDKAIKEAEKYSPEAGAAMKSTKEKSVAIANAAL")
"F"
>>> cat("d8r1_design_ppi_217_dldesign_0_cycle1_af2pred (protein) GDAVMEAAAAISNAAAAAIAAAKADPAKADEALAAATATAKALADATGKPLVKAVAKGATARVAAVAAAVKAAA")
"F"
>>> cat("d8r1_design_ppi_820_dldesign_0_cycle1_af2pred (protein) AAEAQALLQTFEANVEGAKMMGEASSLPALVRYHAITKTSATLAARAKELGLEEAAAQIEARGKELAAEAKAGLEKELAA")
"F"
>>> cat("d8r1_design_ppi_1408_dldesign_0_cycle1_af2pred (protein) EESVKASILAAIERGARLLAAENPAAGVAALTVARVLTTTGGLGSAIAGAAAFAAIAAAATGARGAAIGGSVVSFTVKLVEMYK")
"F"
>>> cat("d8r1_design_ppi_419_dldesign_0_cycle0_af2pred (protein) SELEEEARKAEEEFRAALAELEAAAAELEKLDPAAGATARRAAEGARGLLELAKKFSVKSQLNVAKSMLRGAERQLAAARARVAALK")
"F"
>>> cat("d8r1_design_ppi_295_dldesign_0_cycle0_af2pred (protein) SLKEKAEKHLELAQKYAEKAGKLRGVKIEVKGANLEELKALRKEFGAWADEAAKAGDKETAIEATRAAAHLGEAIDLLEEL")
"F"
>>> cat("d8r1_design_ppi_31_dldesign_0_cycle1_af2pred (protein) DKYSQMAEVWGMLSEVVARVAAELGPEAAEEAIKRAGEAASAAAKDVEEGEKKAKEVKEWADKQLAAAAA")
"F"
>>> cat("d8r1_design_ppi_640_dldesign_0_cycle1_af2pred (protein) SEEEEKKYEELAKAGAAASKAGAVAAKHPDNPEIKKLADEAGKALSEAFTSDVETAKKLAEKVEALAKAAEALAA")
"F"
>>> cat("d8r1_design_ppi_87_dldesign_0_cycle0_af2pred (protein) MEEEFDERMRKAAEYLAKMDAALAAIKAAGDRAEAEKLLAELRKAGEEMAKELGEAGKAIKEALEAQAQAALAA")
"F"
>>> cat("d8r1_design_ppi_1130_dldesign_0_cycle0_af2pred (protein) SAEEAEKAAKELIELAKKAAEDPSYIPEAAALAAKHIGTPEARTALAEAIKILMQKSPELAKQFLAAFSAALAALRAAA")
"F"
>>> cat("d8r1_design_ppi_179_dldesign_0_cycle1_af2pred (protein) MESARNAAEGIAKAAEENPESGARLGKGAVEVLAKRDIEAAVEAARLAAELSKEAGKEEVAEVMKKLAEEAEKKL")
"F"
>>> cat("d8r1_design_ppi_1206_dldesign_0_cycle1_af2pred (protein) SPAAQWAALDADLKQARELAKKAKEVGNEEEAKKVEAALKKAEAAAAAARADPSLYHEARRAVGEAQVEALKVISKG")
"F"
>>> cat("d8r1_design_ppi_43_dldesign_0_cycle1_af2pred (protein) EEALKKASEALSEAARLAIKNPAYLPAFAATGAAYGKVLEAYKKSPEEAKKAAKELLALYEKEVAAAKAAL")
"F"
>>> cat("d8r1_design_ppi_1413_dldesign_0_cycle1_af2pred (protein) GSLLEELAKKEEELKDEEKMLKAHENALEIGIKKAEEDPAKGAKILENLAKNAEAAAKKASPEIAKKFKELAERAKKAAKEAKKKAA")
"F"
>>> cat("d8r1_design_ppi_1240_dldesign_0_cycle1_af2pred (protein) DDATLKQAAALIAEGQAAAAQATTDPAYAAKAKEAYKKAGEVYPESSEFFNIAGEKTAQAALDKYKAAQAAAAAAAA")
"F"
>>> cat("d8r1_design_ppi_640_dldesign_0_cycle0_af2pred (protein) SEEEEKKAEYLKKAGAAASRAGKVAAANAGNPEIQALAKKAAKALNEAFASNVEEAKKKAEEVEKLAAEAEALAA")
"F"
